Target: T1, recombinant human activated Factor VII (FVIIa) (human, UniProt P08709 61-212; P08709 213-466, ten glutamate residues of the Gla domain may be gamma-carboxylated)
T1 construct: chains tethered by a disulfide bond; also called Factor VIIa; rFVIIa
T1 sequence 1: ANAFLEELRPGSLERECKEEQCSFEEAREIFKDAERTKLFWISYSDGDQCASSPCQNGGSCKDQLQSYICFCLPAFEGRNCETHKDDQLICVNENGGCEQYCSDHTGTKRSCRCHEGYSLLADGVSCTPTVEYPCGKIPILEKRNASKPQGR
T1 sequence 2: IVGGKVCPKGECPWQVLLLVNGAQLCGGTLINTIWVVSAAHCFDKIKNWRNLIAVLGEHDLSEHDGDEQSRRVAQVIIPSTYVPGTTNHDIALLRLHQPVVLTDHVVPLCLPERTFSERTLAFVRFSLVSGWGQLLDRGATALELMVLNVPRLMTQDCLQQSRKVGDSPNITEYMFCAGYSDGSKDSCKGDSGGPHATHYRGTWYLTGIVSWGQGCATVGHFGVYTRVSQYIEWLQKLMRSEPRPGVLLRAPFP
Test: BLI (Fortebio)
pKd: −log10 of the molar value.

binder	pKd
VH SEQ ID NO 522 / VL SEQ ID NO 342 (antibody, IgG4, V domains shown, humanized 11F2; IgG4 S228P/kappa) VH: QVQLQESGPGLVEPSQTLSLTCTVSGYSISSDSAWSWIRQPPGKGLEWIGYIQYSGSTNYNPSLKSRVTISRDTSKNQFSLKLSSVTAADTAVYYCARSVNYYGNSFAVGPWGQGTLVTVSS VL: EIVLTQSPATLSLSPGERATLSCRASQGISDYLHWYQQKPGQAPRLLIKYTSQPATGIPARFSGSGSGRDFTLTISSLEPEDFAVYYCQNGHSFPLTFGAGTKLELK	8.85
VH SEQ ID NO 570 / VL SEQ ID NO 318 (antibody, IgG4, V domains shown, humanized 11F2; IgG4 S228P/kappa) VH: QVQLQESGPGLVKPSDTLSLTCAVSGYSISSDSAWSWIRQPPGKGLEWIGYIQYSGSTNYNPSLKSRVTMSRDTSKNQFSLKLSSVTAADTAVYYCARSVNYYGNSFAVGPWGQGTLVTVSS VL: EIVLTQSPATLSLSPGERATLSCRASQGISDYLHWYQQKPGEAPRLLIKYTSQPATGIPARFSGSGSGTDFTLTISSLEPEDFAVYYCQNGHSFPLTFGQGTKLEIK	9.08
VH SEQ ID NO 626 / VL SEQ ID NO 398 (antibody, IgG4, V domains shown, humanized 11F2; IgG4 S228P/kappa) VH: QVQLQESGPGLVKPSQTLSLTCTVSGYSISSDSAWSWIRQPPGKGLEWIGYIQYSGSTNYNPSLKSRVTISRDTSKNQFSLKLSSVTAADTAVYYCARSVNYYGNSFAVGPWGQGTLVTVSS VL: EIVLTQSPATLSLSPGERATLSCRASQGVSDYLAWYQQKPGEAPRLLIKYTSQPATGIPARFSGSGSGTDFTLTISSLEPEDFAVYYCQNGHSFPLTFGQGTKLEIK	6.09
VH SEQ ID NO 570 / VL SEQ ID NO 494 (antibody, IgG4, V domains shown, humanized 11F2; IgG4 S228P/kappa) VH: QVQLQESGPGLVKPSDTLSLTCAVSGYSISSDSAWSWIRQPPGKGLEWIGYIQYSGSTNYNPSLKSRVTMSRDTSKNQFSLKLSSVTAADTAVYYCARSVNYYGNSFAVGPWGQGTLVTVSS VL: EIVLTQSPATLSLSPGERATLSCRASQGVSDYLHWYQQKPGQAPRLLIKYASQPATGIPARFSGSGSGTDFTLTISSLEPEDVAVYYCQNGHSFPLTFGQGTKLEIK	8.96
VH SEQ ID NO 602 / VL SEQ ID NO 342 (antibody, IgG4, V domains shown, humanized 11F2; IgG4 S228P/kappa) VH: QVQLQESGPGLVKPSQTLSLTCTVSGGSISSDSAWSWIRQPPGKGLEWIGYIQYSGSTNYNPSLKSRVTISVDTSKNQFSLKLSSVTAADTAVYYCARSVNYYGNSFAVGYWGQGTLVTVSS VL: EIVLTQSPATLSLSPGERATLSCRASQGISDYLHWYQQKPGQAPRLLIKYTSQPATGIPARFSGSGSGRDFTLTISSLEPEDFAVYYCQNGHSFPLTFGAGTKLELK	7.85
